- Protocol details: Oral bioavailability in male Sprague-Dawley rat at 100 mg/kg measured after 8 hrs by LC-MS analysis
- Format: ADME, organism-based
- Applied conditions: in vivo

Given smiles: COc1ccc2cc(-c3ccc(NS(=O)(=O)C(F)(F)F)cc3)ncc2c1O
Unit abbrev: %
bioavailability: 61.9

====

- Protocol details: Clearance in male Sprague-Dawley rat at 20 mg/kg, ip measured after 8 hrs by LC-MS analysis
- Type: ADME, organism-based
- Applied conditions: in vivo

Given smiles: COc1ccc2cc(-c3ccc(NS(=O)(=O)C(F)(F)F)cc3)ncc2c1O
CL/F [mL/min/kg]: 50

====

- Experimental system: Indoleamine 2,3-dioxygenase 1 (Homo sapiens)
- Protocol details: Inhibition of N-terminal His-tagged recombinant human IDO1 extracted from Escherichia coli Transetta (DE3) using L-tryptophan as substrate preincubated for 5 mins followed by substrate addition and measured after 1 hrs by absorbance based microplate reader
Quick reference for IC50 among some compounds

Given smiles: COc1ccc2nc(-c3ccccc3)ncc2c1O
IC50: > 100 µM
//
Given smiles: Oc1ccc2cc(-c3ccc4c(c3)OCO4)ncc2c1
IC50: > 100 µM
//
Given smiles: COc1ccc(-c2ccc3c(O)c(OC)ccc3n2)cc1
IC50: > 100 µM

====

- Experimental system: Indoleamine 2,3-dioxygenase 1 (Homo sapiens, UniProt P14902)
- Sequence (P14902 whole entry): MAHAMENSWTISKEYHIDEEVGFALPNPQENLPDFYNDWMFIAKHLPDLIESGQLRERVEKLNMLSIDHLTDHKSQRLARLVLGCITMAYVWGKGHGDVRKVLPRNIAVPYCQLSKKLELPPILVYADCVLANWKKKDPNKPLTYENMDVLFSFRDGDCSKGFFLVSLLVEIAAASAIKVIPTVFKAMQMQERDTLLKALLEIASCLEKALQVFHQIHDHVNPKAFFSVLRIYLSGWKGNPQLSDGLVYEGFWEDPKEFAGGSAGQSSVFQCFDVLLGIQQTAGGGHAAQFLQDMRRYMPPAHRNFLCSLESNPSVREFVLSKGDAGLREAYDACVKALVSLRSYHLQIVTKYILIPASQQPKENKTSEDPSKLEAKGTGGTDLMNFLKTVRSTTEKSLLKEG
- Protocol details: Inhibition of N-terminal His-tagged recombinant human IDO1 extracted from Escherichia coli Transetta (DE3) using L-tryptophan as substrate preincubated for 5 mins followed by substrate addition and measured after 1 hrs by absorbance based microplate reader
pIC50: −log10 of the molar value.
Quick reference for pIC50 among some compounds
Endpoint name: pIC50

Given smiles: COc1ccc2cc(-c3ccc(NC(=O)c4ccc(C(F)(F)F)cc4)cc3)ncc2c1O
Endpoint name: pIC50
Result: < 4.00

Given smiles: COc1ccc2cc(-c3ccc(C)cc3)ncc2c1OC
Endpoint name: pIC50
Result: < 4.00

Given smiles: COc1ccc2cc(-c3ccc(C(C)(C)C)cc3)ncc2c1OC
Endpoint name: pIC50
Result: < 4.00

Given smiles: COc1ccc2cc(-c3ccc(NC(=O)C(F)(F)F)cc3)ncc2c1O
Endpoint name: pIC50
Result: 5.21

Given smiles: COc1ccc2cc(-c3ccc(NC(=O)c4ccc(F)cc4)cc3)ncc2c1O
Endpoint name: pIC50
Result: < 4.00

Given smiles: COc1ccc2nc(-c3ccccc3)ccc2c1O
Endpoint name: pIC50
Result: < 4.00

====

Consider the following pIC50 values measured on Tryptophan 2,3-dioxygenase (Homo sapiens).
pIC50: −log10 of the molar value.
Endpoint name: pIC50

Given smiles: COc1ccc(-c2cc3ccc(OC)c(O)c3cn2)cc1
Endpoint name: pIC50
Result: < 4.52
--
Given smiles: COc1ccc2cc(-c3ccccc3)ncc2c1OC
Endpoint name: pIC50
Result: < 4.52
--
Given smiles: COc1ccc2cc(-c3ccc(NC(C)=O)cc3)ncc2c1O
Endpoint name: pIC50
Result: < 4.52

====

Consider the following log10 IC50 values measured on Tryptophan 2,3-dioxygenase (Homo sapiens).
Endpoint name: log10 IC50 (log10 of the value in nM)

Given smiles: COc1ccc2cc(-c3cccs3)ncc2c1O
Experimental system: Tryptophan 2,3-dioxygenase (Homo sapiens)
log10 IC50: 3.01

Given smiles: Oc1cccc2cc(-c3ccccc3)ncc12
Experimental system: Tryptophan 2,3-dioxygenase (Homo sapiens)
log10 IC50: 4.40

Given smiles: COc1ccc2cc(-c3ccc(NC(=O)C(F)(F)F)cc3)ncc2c1O
Experimental system: Tryptophan 2,3-dioxygenase (Homo sapiens)
log10 IC50: 3.06

Given smiles: COc1ccc2cc(-c3ccc(NC(=O)C(C)(C)C)cc3)ncc2c1O
Experimental system: Tryptophan 2,3-dioxygenase (Homo sapiens)
log10 IC50: 3.08

Given smiles: COc1ccc2cc(-c3ccc(F)cc3)ncc2c1OC
Experimental system: Tryptophan 2,3-dioxygenase (Homo sapiens)
log10 IC50: 3.96

Given smiles: COc1ccc(-c2cc3ccc(OC)c(OC)c3cn2)cc1
Experimental system: Tryptophan 2,3-dioxygenase (Homo sapiens)
log10 IC50: 3.43

====

pIC50: −log10 of the molar value.
Consider the following pIC50 values measured on Tryptophan 2,3-dioxygenase (Homo sapiens, UniProt P48775).
Sequence (P48775 whole entry): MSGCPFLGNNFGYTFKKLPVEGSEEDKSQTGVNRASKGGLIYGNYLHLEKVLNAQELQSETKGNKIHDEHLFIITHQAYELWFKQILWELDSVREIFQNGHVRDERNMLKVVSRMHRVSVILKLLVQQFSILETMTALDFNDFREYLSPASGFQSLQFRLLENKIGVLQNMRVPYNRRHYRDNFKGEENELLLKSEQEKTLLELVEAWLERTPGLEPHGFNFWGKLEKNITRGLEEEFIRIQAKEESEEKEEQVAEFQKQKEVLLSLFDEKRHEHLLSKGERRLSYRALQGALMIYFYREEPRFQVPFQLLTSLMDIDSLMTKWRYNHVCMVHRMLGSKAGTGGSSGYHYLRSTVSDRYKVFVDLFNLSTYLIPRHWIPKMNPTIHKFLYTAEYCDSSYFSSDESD

Given smiles: COc1ccc2cc(-c3ccc4ncsc4c3)ncc2c1OC
pIC50: < 4.00
//
Given smiles: COc1ccc(-c2ncc3c(O)c(OC)ccc3n2)cc1
pIC50: < 4.00
//
Given smiles: COc1ccc2cc(-c3ccc(C)cc3)ncc2c1OC
pIC50: < 4.00
